Catalogue of Ki(mut)/Ki(wt) readings, one per entry.
- System: A16V.S108T mutant (mut) of DHFR from Plasmodium falciparum
- METHOD_SUMMARY: biochemical
- EXPERIMENTAL_CONDITIONS: resistance factor
ENDPOINT: Ki(mut)/Ki(wt)

>  <COMPOUND>
COc1ccc(Oc2cccc(C3N=C(N)N=C(N)N3c3cccc(Cl)c3)c2)cc1 (centres unmarked)

>  <RESULT>
1.1

$$$$
>  <COMPOUND>
COc1cc(OC)cc(C2N=C(N)N=C(N)N2c2cccc(Cl)c2)c1 (centres unmarked)

>  <RESULT>
0.4

$$$$
>  <COMPOUND>
NC1=NC(c2ccc(Cl)cc2)N(c2ccc(Cl)cc2)C(N)=N1 (centres unmarked)

>  <RESULT>
14.0

$$$$
>  <COMPOUND>
NC1=NC(c2cccc(Oc3ccc(Cl)cc3)c2)N(c2ccc(Cl)cc2)C(N)=N1 (centres unmarked)

>  <RESULT>
5.3

$$$$
>  <COMPOUND>
COc1ccc(C2N=C(N)N=C(N)N2c2ccc(Cl)cc2)cc1OC (centres unmarked)

>  <RESULT>
3.8

$$$$
>  <COMPOUND>
CCCOc1cccc(C2N=C(N)N=C(N)N2c2cccc(/C=C/c3ccc(Cl)cc3Cl)c2)c1 (centres unmarked)

>  <RESULT>
14.8

$$$$
>  <COMPOUND>
Cl.NC1=NCN(c2ccccc2)C(N)=N1

>  <RESULT>
1.8

$$$$
>  <COMPOUND>
COc1ccc(Oc2cccc(C3N=C(N)N=C(N)N3c3ccc(Cl)cc3)c2)cc1 (centres unmarked)

>  <RESULT>
9.4

$$$$

* * *

Recorded measurements of Ki(mut)/Ki(wt), one per entry
- Tested on: A16V.S108T mutant (mut) of DHFR from Plasmodium falciparum
- METHOD_SUMMARY: biochemical
- EXPERIMENTAL_CONDITIONS: resistance factor

>  <COMPOUND>
NC1=NC(c2cccc(OCc3ccccc3)c2)N(c2cccc(COc3cc(Cl)c(Cl)cc3Cl)c2)C(N)=N1 (stereo not shown) [(Id1) R2=3-benzyloxyphenyl]

>  <STUDY_TARGET>
A16V.S108T mutant (mut) of DHFR from Plasmodium falciparum

>  <Ki(mut)/Ki(wt)>
1.1

$$$$
>  <COMPOUND>
NC1=NCN(c2ccc(Cl)c(Cl)c2)C(N)=N1 [(Ic) R2=H]

>  <STUDY_TARGET>
A16V.S108T mutant (mut) of DHFR from Plasmodium falciparum

>  <Ki(mut)/Ki(wt)>
8.2

$$$$
>  <COMPOUND>
NC1=NC(c2ccc(O)cc2)N(c2ccc(Cl)cc2)C(N)=N1 (stereo not shown) [(Ia) R2=p-hydroxyphenyl]

>  <STUDY_TARGET>
A16V.S108T mutant (mut) of DHFR from Plasmodium falciparum

>  <Ki(mut)/Ki(wt)>
8.6

$$$$
>  <COMPOUND>
NC1=NC(c2ccc(Br)cc2)N(c2cccc(Cl)c2)C(N)=N1 (stereo not shown) [(Ib) R2=4-bromophenyl]

>  <STUDY_TARGET>
A16V.S108T mutant (mut) of DHFR from Plasmodium falciparum

>  <Ki(mut)/Ki(wt)>
0.8

$$$$

* * *

- STUDY_TARGET: DHFR-TS from Trypanosoma cruzi (Trypanosoma cruzi, UniProt Q27793)
- Construct: pET 11c with the insertion of the complete ORF of the gene tc-dhfrts; made in house; host or cells: E. coli BL21 (DE3)
- Sequence (Q27793 whole entry): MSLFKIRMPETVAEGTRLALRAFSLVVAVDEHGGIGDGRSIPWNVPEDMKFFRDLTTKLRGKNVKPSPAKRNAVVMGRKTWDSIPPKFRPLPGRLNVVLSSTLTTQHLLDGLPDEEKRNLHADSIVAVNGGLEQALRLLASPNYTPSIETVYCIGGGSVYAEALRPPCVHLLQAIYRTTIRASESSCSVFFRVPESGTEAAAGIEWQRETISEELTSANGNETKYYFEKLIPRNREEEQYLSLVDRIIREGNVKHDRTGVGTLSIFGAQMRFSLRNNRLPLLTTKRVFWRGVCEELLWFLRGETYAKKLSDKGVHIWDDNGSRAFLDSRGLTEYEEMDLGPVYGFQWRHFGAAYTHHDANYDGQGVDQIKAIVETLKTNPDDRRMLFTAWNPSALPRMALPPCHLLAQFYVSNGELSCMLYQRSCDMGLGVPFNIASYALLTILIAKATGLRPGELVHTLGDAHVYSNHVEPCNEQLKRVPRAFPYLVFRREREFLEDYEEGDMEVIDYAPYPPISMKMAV
- METHOD_SUMMARY: Inhibition of T. cruzi DHFR-TS (I50-derived Ki)
- Assay type: biochemical
pKi: −log10 of the molar value. Where a name gives a salt, the structure may show the parent alone.
ENDPOINT: pKi

>  <MOLECULE>
COc1cc(OC)cc(C2N=C(N)N=C(N)N2c2ccc(Cl)cc2)c1 (stereo not shown)

>  <MEASURED_NUMBER>
6.70

$$$$
>  <MOLECULE>
NC1=NC(c2cccc(Oc3ccccc3)c2)N(c2cccc(Cl)c2)C(N)=N1 (stereo not shown)

>  <MEASURED_NUMBER>
8.40

$$$$
>  <MOLECULE>
Cl.NC1=NCN(c2ccc(Cl)cc2)C(N)=N1 [(Ia) R2=H, hydrochloride]

>  <MEASURED_NUMBER>
7.80

$$$$
>  <MOLECULE>
COc1ccc(C2N=C(N)N=C(N)N2c2ccc(Cl)cc2)cc1OC (stereo not shown)

>  <MEASURED_NUMBER>
6.41

$$$$
>  <MOLECULE>
COc1ccc(C2N=C(N)N=C(N)N2c2ccc(F)cc2)cc1 (stereo not shown)

>  <MEASURED_NUMBER>
7.21

$$$$
>  <MOLECULE>
NC1=NC(c2ccccc2)N(c2ccc(Cl)cc2)C(N)=N1 (stereo not shown) [(Ia) R2=phenyl, hydrochloride]

>  <MEASURED_NUMBER>
7.38

$$$$
>  <MOLECULE>
CC(C)c1ccc(C2N=C(N)N=C(N)N2c2ccc(Cl)cc2)cc1 (stereo not shown)

>  <MEASURED_NUMBER>
7.22

$$$$

* * *

- STUDY_TARGET: A16V.S108T mutant (mut) of DHFR from Plasmodium falciparum (Plasmodium falciparum, UniProt A7UD81, A16V/S108T)
- Construct: The Dihydrofolate Reductase Domain of Plasmodium falciparum Thymidylate Synthase-Dihydrofolate Reductase; made in house
- Sequence (A7UD81 1-231 A16V/S108T): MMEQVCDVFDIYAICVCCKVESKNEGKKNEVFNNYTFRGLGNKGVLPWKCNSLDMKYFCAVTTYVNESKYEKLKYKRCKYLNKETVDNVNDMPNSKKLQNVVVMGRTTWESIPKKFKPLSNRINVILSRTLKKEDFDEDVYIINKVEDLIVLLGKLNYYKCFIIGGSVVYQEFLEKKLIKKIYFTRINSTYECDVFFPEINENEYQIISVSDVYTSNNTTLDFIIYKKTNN
- METHOD_SUMMARY: biochemical
- EXPERIMENTAL_CONDITIONS: A16V.S108T mutant pfDHFR; read-out: Ki(mut)
Items are presented alongside their recorded Ki.
ENDPOINT: Ki (µM)

>  <COMPOUND>
CCCOc1cccc(C2N=C(N)N=C(N)N2c2cccc(/C=C/c3ccc(Cl)cc3Cl)c2)c1 (centres unmarked)

>  <ENDPOINT>
Ki

>  <MEASURED_NUMBER>
0.0192

$$$$
>  <COMPOUND>
NC1=NC(c2cccc(Oc3ccccc3)c2)N(c2cccc(/C=C/c3ccc(Cl)cc3Cl)c2)C(N)=N1 (centres unmarked)

>  <ENDPOINT>
Ki

>  <MEASURED_NUMBER>
0.0108

$$$$
>  <COMPOUND>
NC1=NC(c2cccc(OCc3ccccc3)c2)N(c2ccc(OCc3ccccc3)cc2)C(N)=N1 (centres unmarked)

>  <ENDPOINT>
Ki

>  <MEASURED_NUMBER>
0.0057

$$$$
>  <COMPOUND>
NC1=NC(c2cccc(Oc3ccc(Cl)cc3)c2)N(c2cccc(/C=C/c3ccc(Cl)cc3Cl)c2)C(N)=N1 (centres unmarked)

>  <ENDPOINT>
Ki

>  <MEASURED_NUMBER>
0.21

$$$$
>  <COMPOUND>
NC1=NC(c2ccc(Cl)cc2)N(c2ccc(Cl)cc2)C(N)=N1 (centres unmarked)

>  <ENDPOINT>
Ki

>  <MEASURED_NUMBER>
0.105

$$$$
>  <COMPOUND>
NC1=NC(c2cccc(OCc3ccccc3)c2)N(c2cccc(COc3cc(Cl)c(Cl)cc3Cl)c2)C(N)=N1 (centres unmarked)

>  <ENDPOINT>
Ki

>  <MEASURED_NUMBER>
0.0117

$$$$
>  <COMPOUND>
CCCCOc1ccc(C2N=C(N)N=C(N)N2OCCCOc2cc(Cl)c(Cl)cc2Cl)cc1 (centres unmarked)

>  <ENDPOINT>
Ki

>  <MEASURED_NUMBER>
0.0082

$$$$
>  <COMPOUND>
CCCOc1ccc(C2N=C(N)N=C(N)N2OCCCOc2cc(Cl)c(Cl)cc2Cl)cc1 (centres unmarked)

>  <ENDPOINT>
Ki

>  <MEASURED_NUMBER>
0.0061

$$$$

* * *

Item-by-item account of pKi
- STUDY_TARGET: DHFR-TS from Trypanosoma cruzi (Trypanosoma cruzi, UniProt Q27793)
- Construct: pET 11c with the insertion of the complete ORF of the gene tc-dhfrts; made in house; host or cells: E. coli BL21 (DE3)
- METHOD_SUMMARY: Inhibition of T. cruzi DHFR-TS (I50-derived Ki);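 also: enzymes were recombinant T. cruzi DHFR-TS and human DHFR, both expressed in E. coli and purified on a methotrexate affinity column, with dihydrofolate and NADPH as substrates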
- Type: biochemical
pKi: −log10 of the molar value.

>  <MOLECULE>
NC1=NC(c2cccc(Oc3ccccc3)c2)N(c2ccc(Cl)cc2)C(N)=N1 (stereo not shown)

>  <pKi>
7.68

$$$$
>  <MOLECULE>
NC1=NC(c2ccc(OCc3ccccc3)cc2)N(c2ccc(Cl)cc2)C(N)=N1 (stereo not shown)

>  <pKi>
7.89

$$$$
>  <MOLECULE>
COc1ccc(C2N=C(N)N=C(N)N2c2ccc(Cl)cc2)cc1 (stereo not shown)

>  <pKi>
7.59

$$$$
>  <MOLECULE>
NC1=NC(c2ccc(Oc3ccccc3)cc2)N(c2ccc(Cl)cc2)C(N)=N1 (stereo not shown)

>  <pKi>
8.52

$$$$
>  <MOLECULE>
NC1=NC(c2cccc(OCc3ccccc3)c2)N(c2cccc(OCc3ccccc3)c2)C(N)=N1 (stereo not shown)

>  <pKi>
6.89

$$$$
>  <MOLECULE>
CC(C)(C)c1ccc(Oc2cccc(C3N=C(N)N=C(N)N3c3ccc(Cl)cc3)c2)cc1 (stereo not shown)

>  <pKi>
6.95

$$$$
>  <MOLECULE>
NC1=NCN(c2ccc(OCc3ccccc3)cc2)C(N)=N1

>  <pKi>
8.00

$$$$
